Tested on: β-galactosidase in CMV-LacZ C2C12 myoblasts
Experiment: CMV-LacZ secondary screen in C2C12 myoblasts (β-Gal stabilizing assay)
Assay type: cell-based, mouse
Details: 20 uM; CMV-LacZ C2C12 myoblasts
Text: In order to determine compounds that acted to stabilize β-gal in myogenic cells, a CMV-LacZ C2C12 cell line was used in a secondary screen. The EGFP gene from the pEGFP (Clontech) vector was replaced by LACZ PCR product with digests of the vector/PCR product performed using EcoRI (NEB) and NotI (NEB) and ligated using T4 DNA Ligase (NEB) following standard procedures to produce the CMV-LACZ vector. […]
Please enter Met where CMV-LACZ in Myoblasts (β-galactosidase activity relative to DMSO) is greater than or equal to 0.9, and Not met where it is lower.

Below are worked cases with known answers.
Cc1noc(C)c1COc1ccc(C(=O)NCCc2ccccn2)cc1: Met
N#C/C(=C/c1ccc(N2CCOCC2)o1)C(=O)Nc1ccccc1: Met
CC1CC(C)(C)NC(=S)N1CC(=O)N(C)Cc1ccccc1 (stereo not shown): Not met
COc1cc([N+](=O)[O-])cc(/C=N/NC(=O)C(O)(c2ccccc2)c2ccccc2)c1O: Met

Let us examine a further case.
Is the recorded value of CMV-LACZ in Myoblasts (β-galactosidase activity relative to DMSO) equal to or greater than 0.9 for this compound? O=C1Nc2ccccc2/C1=C/c1ccccc1F
Not met
